Molecular target: Neutrophil elastase enzyme (HNE) (Homo sapiens, UniProt P08246)
Sequence (P08246 30-267): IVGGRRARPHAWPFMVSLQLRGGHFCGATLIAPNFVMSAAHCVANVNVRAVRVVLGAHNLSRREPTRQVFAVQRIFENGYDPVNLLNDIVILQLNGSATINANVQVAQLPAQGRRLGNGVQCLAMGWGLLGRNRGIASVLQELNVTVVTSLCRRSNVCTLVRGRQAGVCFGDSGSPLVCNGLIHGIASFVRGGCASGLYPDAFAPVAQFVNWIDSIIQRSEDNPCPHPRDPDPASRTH
Test: Neutrophil elastase inhibitor activity
Format: biochemical
Conditions: read-out: Degree of HNE inhibition (Mean)
test_readout: inhibition at 0.1 µM (%)

>>> print(df.to_string())
                            compound          test_readout  measure_unit  numeric_value
0  NC(=S)NNC(=O)CC1C(=O)c2ccccc2C1=O  inhibition at 0.1 µM             %           16.3

(1) O=C(CC1C(=O)c2ccccc2C1=O)NNC(=S)N=Cc1cccc([N+](=O)[O-])c1
(2) NNC(=O)CC1C(=O)c2ccccc2C1=O
(3) CC(C)(C)C(=O)Oc1ccc(S(=O)(=O)Nc2ccccc2C(=O)NCC(=O)O)cc1 [Sivelestat, reference compound]
Q: // smallest inhibition at 0.1 µM at index 0, largest at the end When ranking, write the labels in the order the request describes.
Ans: 1, 2, 3
